Collected pIC50 values appear next to each entry.
# test-target: UniProtKB Q6P6C2
# experiment: Inhibition of ALKBH5 (unknown origin) using 5'-ATTGTCA(m6A)CAGCAGA-FAM-3' as substrate measured after 30 mins by fluorescence polarization assay
pIC50: −log10 of the molar value.
property-name: pIC50

{"chem-smiles": "Cc1cc([N+](=O)[O-])c(Br)cc1N1C(=O)C(Cl)=C(Nc2ccccc2C(=O)O)C1=O", "property-name": "pIC50", "inequality-sign": "<", "numeric-value": 3.70}
{"chem-smiles": "O=C(O)c1ccccc1NC1=C(Cl)C(=O)N(c2cccc(Br)c2)C1=O", "property-name": "pIC50", "inequality-sign": "=", "numeric-value": 4.67}
{"chem-smiles": "O=C(O)c1ccccc1NC1=C(Cl)C(=O)N(c2cccc(I)c2)C1=O", "property-name": "pIC50", "inequality-sign": "=", "numeric-value": 4.43}

###

# test-target: RNA demethylase ALKBH5 (Homo sapiens, UniProt Q6P6C2)
# Sequence (Q6P6C2 whole entry): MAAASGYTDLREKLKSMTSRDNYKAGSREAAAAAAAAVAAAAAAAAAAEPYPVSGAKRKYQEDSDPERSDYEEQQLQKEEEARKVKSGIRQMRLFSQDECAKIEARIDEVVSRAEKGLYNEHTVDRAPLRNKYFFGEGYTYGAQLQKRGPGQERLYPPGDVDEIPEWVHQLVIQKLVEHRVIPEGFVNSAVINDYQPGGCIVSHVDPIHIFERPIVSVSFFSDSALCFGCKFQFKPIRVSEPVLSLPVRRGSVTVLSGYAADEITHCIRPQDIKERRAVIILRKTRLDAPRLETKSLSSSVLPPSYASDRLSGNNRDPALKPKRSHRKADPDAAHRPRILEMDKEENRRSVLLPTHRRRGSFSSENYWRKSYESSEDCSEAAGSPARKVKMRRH
# experiment: Inhibition of ALKBH5 (unknown origin) using 5'-ATTGTCA(m6A)CAGCAGA-FAM-3' as substrate measured after 30 mins by fluorescence polarization assay
pIC50: −log10 of the molar value.
property-name: pIC50

{"chem-smiles": "N#Cc1ccc(N2C(=O)C(Cl)=C(Nc3ccccc3C(=O)O)C2=O)cc1", "test-target": "RNA demethylase ALKBH5 (Homo sapiens, UniProt Q6P6C2)", "property-name": "pIC50", "inequality-sign": "<", "numeric-value": 3.70}
{"chem-smiles": "COc1ccc(N2C(=O)C(Cl)=C(Nc3ccccc3C(=O)O)C2=O)cc1", "test-target": "RNA demethylase ALKBH5 (Homo sapiens, UniProt Q6P6C2)", "property-name": "pIC50", "inequality-sign": "<", "numeric-value": 3.70}
{"chem-smiles": "O=C(O)c1ccc(F)cc1NC1=C(Cl)C(=O)N(c2ccc(Br)c(Br)c2)C1=O", "test-target": "RNA demethylase ALKBH5 (Homo sapiens, UniProt Q6P6C2)", "property-name": "pIC50", "inequality-sign": "=", "numeric-value": 5.27}
{"chem-smiles": "N#Cc1ccc(Br)cc1N1C(=O)C(Cl)=C(Nc2ccccc2C(=O)O)C1=O", "test-target": "RNA demethylase ALKBH5 (Homo sapiens, UniProt Q6P6C2)", "property-name": "pIC50", "inequality-sign": "=", "numeric-value": 4.16}
{"chem-smiles": "O=C(O)c1ccccc1NC1=C(Cl)C(=O)N(c2ccc(Cl)c(Cl)c2)C1=O", "test-target": "RNA demethylase ALKBH5 (Homo sapiens, UniProt Q6P6C2)", "property-name": "pIC50", "inequality-sign": "=", "numeric-value": 4.69}

###

# test-target: Alpha-ketoglutarate-dependent dioxygenase FTO (Homo sapiens)
# Sequence (Q9C0B1 whole entry): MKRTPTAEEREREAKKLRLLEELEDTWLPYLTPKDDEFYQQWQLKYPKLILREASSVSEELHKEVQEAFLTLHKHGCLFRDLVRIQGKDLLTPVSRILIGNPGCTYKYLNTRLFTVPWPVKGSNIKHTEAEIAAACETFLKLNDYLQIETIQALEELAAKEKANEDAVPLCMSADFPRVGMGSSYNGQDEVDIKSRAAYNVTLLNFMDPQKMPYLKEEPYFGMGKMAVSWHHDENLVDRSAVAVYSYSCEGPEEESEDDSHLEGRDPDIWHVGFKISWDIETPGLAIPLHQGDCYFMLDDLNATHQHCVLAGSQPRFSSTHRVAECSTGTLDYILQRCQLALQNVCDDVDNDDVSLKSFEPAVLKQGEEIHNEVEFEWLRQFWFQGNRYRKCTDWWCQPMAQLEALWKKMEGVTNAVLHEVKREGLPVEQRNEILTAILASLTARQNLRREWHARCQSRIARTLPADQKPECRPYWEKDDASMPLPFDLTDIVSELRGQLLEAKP
# experiment: Inhibition of FTO (unknown origin) using 5'-TAGACATTGCCATTCTCGATAGG (m6A) TCCGGTCAAACCTAGAC GAATTCCA-3' as substrate measured after 2 hrs in presence of 2-OG by PAGE based restriction enzyme digestion assay
property-name: IC50

{"chem-smiles": "O=C(O)c1ccccc1NC1=C(Cl)C(=O)N(c2ccc(I)c(Cl)c2)C1=O", "result": "> 250 µM"}

###

# test-target: RNA demethylase ALKBH5 (Homo sapiens)
# experiment: Inhibition of ALKBH5 (unknown origin) using 5'-TAGACATTGCCATTCTCGATAGG (m6A) TCCGGTCAAACCTAGAC GAATTCCA-3' as substrate measured after 2 hrs in presence of 2-OG by PAGE based restriction enzyme digestion assay
pIC50: −log10 of the molar value.
Collected pIC50 values appear next to each entry.

{"chem-smiles": "O=C1C(Cl)=C(Nc2ccccc2)C(=O)N1c1ccc(Cl)c(Cl)c1", "inequality-sign": ">", "pIC50": 4.00}
{"chem-smiles": "O=C(O)c1ccccc1NC1=C(Cl)C(=O)N(c2ccc(C(F)(F)F)c(Br)c2)C1=O", "inequality-sign": "=", "pIC50": 4.59}
{"chem-smiles": "O=C(O)c1ccccc1NC1=C(Cl)C(=O)N(c2ccc(I)c(Cl)c2)C1=O", "inequality-sign": "=", "pIC50": 4.95}
